System: Enterococcus faecalis biofilms
Test: Minimum biofilm eradication concentration (MBEC), regrowth assay
Type: cell-based
Settings: Table 1
// reported MBEC v EF for each item listed
experimental-endpoint: MBEC v EF (µM)

* CCCCCCCCCCCC[N+](C)(C)CCC[N+](C)(C)CCC[N+](C)(C)CCCCCCCCCCCC | 50
* CCCCCCCCCCCC[N+](C)(C)CCCN(C)CCC[N+](C)(C)CCCCCCCCCCCC | 50
* CCCCCCCCCCCC[N+](C)(C)CCN(C)CCN(C)CC[N+](C)(C)CCCCCCCCCCCC | 75
* CCCCCCCCCCC[n+]1ccc(-c2cc[n+](CCCCCCCCCCC)cc2)cc1 | 50

Where do these numbers come from? They come from patent US20180111893A1.
